# tested_system: GluN1/2A receptors (Rattus norvegicus, UniProt Q00959)
# Sequence (Q00959 23-1464, other chains not shown): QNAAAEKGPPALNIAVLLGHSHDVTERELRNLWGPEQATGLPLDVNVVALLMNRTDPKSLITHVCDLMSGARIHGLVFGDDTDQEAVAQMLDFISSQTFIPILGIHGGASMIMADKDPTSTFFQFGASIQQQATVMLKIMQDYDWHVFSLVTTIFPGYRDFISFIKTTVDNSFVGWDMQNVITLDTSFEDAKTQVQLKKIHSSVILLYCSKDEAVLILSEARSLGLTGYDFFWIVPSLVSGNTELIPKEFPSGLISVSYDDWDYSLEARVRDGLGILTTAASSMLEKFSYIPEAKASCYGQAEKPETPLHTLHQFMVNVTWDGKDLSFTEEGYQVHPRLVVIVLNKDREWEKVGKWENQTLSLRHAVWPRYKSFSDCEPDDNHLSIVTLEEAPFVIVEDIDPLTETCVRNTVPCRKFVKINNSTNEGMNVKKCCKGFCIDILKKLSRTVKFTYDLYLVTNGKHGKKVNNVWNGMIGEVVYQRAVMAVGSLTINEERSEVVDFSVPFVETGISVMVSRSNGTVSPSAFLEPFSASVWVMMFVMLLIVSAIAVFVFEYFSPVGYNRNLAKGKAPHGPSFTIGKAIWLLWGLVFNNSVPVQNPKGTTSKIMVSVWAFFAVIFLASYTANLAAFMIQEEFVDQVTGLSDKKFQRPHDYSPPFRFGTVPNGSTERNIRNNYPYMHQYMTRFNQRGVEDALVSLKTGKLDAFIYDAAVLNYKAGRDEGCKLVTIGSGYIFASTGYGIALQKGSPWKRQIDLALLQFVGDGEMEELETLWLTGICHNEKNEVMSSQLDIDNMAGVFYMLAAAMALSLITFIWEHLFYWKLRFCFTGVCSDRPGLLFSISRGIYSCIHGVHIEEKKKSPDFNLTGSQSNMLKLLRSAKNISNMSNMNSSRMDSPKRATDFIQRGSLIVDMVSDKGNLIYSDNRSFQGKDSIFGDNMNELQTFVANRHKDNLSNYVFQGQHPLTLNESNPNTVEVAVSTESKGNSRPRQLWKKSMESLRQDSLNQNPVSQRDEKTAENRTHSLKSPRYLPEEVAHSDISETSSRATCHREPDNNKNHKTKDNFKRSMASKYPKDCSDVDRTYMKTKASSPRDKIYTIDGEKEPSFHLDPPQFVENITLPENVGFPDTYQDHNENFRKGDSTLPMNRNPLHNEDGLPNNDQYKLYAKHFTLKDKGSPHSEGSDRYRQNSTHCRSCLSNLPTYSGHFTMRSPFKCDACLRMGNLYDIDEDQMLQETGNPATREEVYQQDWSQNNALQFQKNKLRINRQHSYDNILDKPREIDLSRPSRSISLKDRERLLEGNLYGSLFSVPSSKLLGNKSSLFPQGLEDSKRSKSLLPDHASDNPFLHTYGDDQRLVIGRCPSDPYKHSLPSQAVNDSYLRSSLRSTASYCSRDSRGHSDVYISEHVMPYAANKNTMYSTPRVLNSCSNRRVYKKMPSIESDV
# test_protocol: Zinc inhibition of glutamate-evoked currents in tSA201 cells transfected with GluN1/GluN2A
# test_conditions: vehicle, 1 mM glutamate steady-state current, read-out: IC50 for zinc block in vehicle treated cells
pIC50: −log10 of the molar value.
endpoint_name: pIC50

[[record]]
compound = "[Zn+2] [zinc]"
measurement = 7.66

